test system: NCI-H446; experiment: excess over highest single agent (ExcessHSA) synergy score, 6x6 matrix; higher = less synergy (more negative = stronger synergy); conditions: 72 h; CellTiter-Glo viability
In all, about 1,900 compounds were measured (“excess over highest single agent (ExcessHSA) synergy score, 6x6 matrix”: median about -83, lowest 2% from about -370 on). Shown is part of a subset that was picked to be rich in the lowest values.
Assay Metric: excess over highest single agent
Would you mind answering with just the numeric figure?

Some compounds with known excess over highest single agent results, for comparison:
Compound	Experimental Target	Quantitative Readout
O=C(N[C@@H](COc1ccc2[nH]c(=O)[nH]c2c1)c1ccccc1)c1cccn(Cc2ccc(F)c(F)c2)c1=O + Cc1sc2c(c1C)C(c1ccc(Cl)cc1)=N[C@@H](CC(=O)OC(C)(C)C)c1nnc(C)n1-2	NCI-H446	-158
CCN1CCN(CC(=O)Nc2ccc(-c3cccc4c(=O)cc(N5CCOCC5)oc34)c3sc4ccccc4c23)CC1 + Cc1sc2c(c1C)C(c1ccc(Cl)cc1)=N[C@@H](CC(=O)OC(C)(C)C)c1nnc(C)n1-2	NCI-H446	-383
O=c1cc(N2CCOCC2)oc2c(-c3cccc4c3sc3ccccc34)cccc12 + Cc1sc2c(c1C)C(c1ccc(Cl)cc1)=N[C@@H](CC(=O)OC(C)(C)C)c1nnc(C)n1-2	NCI-H446	-318
CN[C@@H]1C[C@H]2O[C@@](C)([C@@H]1OC)n1c3ccccc3c3c4c(c5c6ccccc6n2c5c31)C(=O)N[C@H]4O + Cc1sc2c(c1C)C(c1ccc(Cl)cc1)=N[C@@H](CC(=O)OC(C)(C)C)c1nnc(C)n1-2	NCI-H446	-378

Task item: Reported excess over highest single agent, compound CN(C)CC(=O)N1CCC(c2ccc(NC(=O)c3ncc(C#N)[nH]3)c(C3=CCCCC3)c2)CC1 + Cc1sc2c(c1C)C(c1ccc(Cl)cc1)=N[C@@H](CC(=O)OC(C)(C)C)c1nnc(C)n1-2 : ____
Reply: 53.2
